Tested on: HT-29
Test: Induction of apoptosis in human HT29 cells at 10 uM after 24 hrs by FACS
Assay type: functional
READOUT NAME: Activity (%)
Unit % implied. Number only.

Solved entries:
Q) Let me know recorded Activity for `C=C1C(=O)O[C@H]2/C=C(\C)CC/C=C(\C)C[C@H](O)[C@@H]12` , thanks.
A) 24.46

Q) Let me know recorded Activity for C=C1C(=O)O[C@@H]2CC(C)=C([C@@H](C)CCCO)[C@H](OC(=O)C(C)CC)[C@H]12 (some centres not stated) , thanks.
A) 3.68

Q) Let me know recorded Activity for `C=C1C(=O)O[C@@H]2CC(C)=C([C@@H](C)CCCOC(C)=O)[C@H](OC(C)=O)[C@H]12` , thanks.
A) 11.15

Q) Let me know recorded Activity for `C=C1C(=O)O[C@H]2/C=C(\C)CC/C=C(\C)C[C@H](OC(C)=O)[C@@H]12` , thanks.
A) 47.56

Q) Let me know recorded Activity for `C=C1C(=O)O[C@@H]2CC(C)=C([C@@H](C)CCCO)[C@H](O)[C@H]12` , thanks.
A) 6.16

Q) Let me know recorded Activity for `C=C1C(=O)O[C@@H]2CC(C)=C([C@@H](C)CCCOC(C)=O)[C@H](O)[C@H]12` , thanks.
A) 6.81

Moving on to the next compound.
Q) Let me know recorded Activity for `CC(=O)OCCC[C@H](C)C1=C[C@@H]2[C@H](C)C(=O)O[C@@H]2C[C@@]1(C)O` , thanks.
A) 4.24

* * *

Test system: HT-29
Assay: Induction of apoptosis in human HT29 cells at 5 uM after 24 hrs by FACS
Type: functional
READOUT NAME: Activity (%)
Unit % implied. Number only.

Solved entries:
Q) Let me know recorded Activity for `C=C1C(=O)O[C@H]2/C=C(\C)CC/C=C(\C)C[C@H](OC(C)=O)[C@@H]12` , thanks.
A) 20.38

Q) Let me know recorded Activity for `C=C1C(=O)O[C@@H]2CC(C)=C([C@@H](C)CCCOC(C)=O)[C@H](OC(C)=O)[C@H]12` , thanks.
A) 11.19

Q) Let me know recorded Activity for `C=C1C(=O)O[C@@H]2CC(C)=C([C@@H](C)CCCO)[C@H](O)[C@H]12` , thanks.
A) 5.75

Q) Let me know recorded Activity for C=C1C(=O)O[C@@H]2CC(C)=C([C@@H](C)CCCO)[C@H](OC(=O)C(C)CC)[C@H]12 (some centres not stated) , thanks.
A) 4.24

Q) Let me know recorded Activity for `C=C1C(=O)O[C@H]2/C=C(\C)CC/C=C(\C)C[C@H](O)[C@@H]12` , thanks.
A) 13.58

Next:
Q) Let me know recorded Activity for `C=C1C(=O)O[C@@H]2CC(C)=C([C@@H](C)CCCOC(C)=O)[C@H](O)[C@H]12` , thanks.
A) 5.36

Q) Let me know recorded Activity for `CC(=O)OCCC[C@H](C)C1=C[C@@H]2[C@H](C)C(=O)O[C@@H]2C[C@@]1(C)O` , thanks.
A) 3.94

* * *

Tested on: HL-60
Assay: Induction of apoptosis in human HL60 cells at 50 uM after 24 hrs by FACS
Format: functional
Each entry below carries its recorded Activity.

Q) Let me know recorded Activity for `C=C1C(=O)O[C@@H]2CC(C)=C([C@@H](C)CCCOC(C)=O)[C@H](OC(C)=O)[C@H]12` , thanks.
A) 27.02%

Q) Let me know recorded Activity for `CC(=O)OCCC[C@H](C)C1=C[C@@H]2[C@H](C)C(=O)O[C@@H]2C[C@@]1(C)O` , thanks.
A) 6.63%

Q) Let me know recorded Activity for `C=C1C(=O)O[C@@H]2CC(C)=C([C@@H](C)CCCO)[C@H](O)[C@H]12` , thanks.
A) 8.01%

Next:
Q) Let me know recorded Activity for C=C1C(=O)O[C@@H]2CC(C)=C([C@@H](C)CCCO)[C@H](OC(=O)C(C)CC)[C@H]12 (some centres not stated) , thanks.
A) 28.6%

Q) Let me know recorded Activity for `C=C1C(=O)O[C@H]2/C=C(\C)CC/C=C(\C)C[C@H](OC(C)=O)[C@@H]12` , thanks.
A) 97.74%

Q) Let me know recorded Activity for `C=C1C(=O)O[C@@H]2CC(C)=C([C@@H](C)CCCOC(C)=O)[C@H](O)[C@H]12` , thanks.
A) 5.69%

Q) Let me know recorded Activity for `C=C1C(=O)O[C@H]2/C=C(\C)CC/C=C(\C)C[C@H](O)[C@@H]12` , thanks.
A) 96.94%

* * *

System: HT-29
Experiment: Induction of apoptosis in human HT29 cells at 100 uM after 24 hrs by FACS
Format: functional
Each entry below carries its recorded Activity.
Unit % implied. Number only.

Solved entries:
Q) Let me know recorded Activity for C=C1C(=O)O[C@@H]2CC(C)=C([C@@H](C)CCCO)[C@H](O)[C@H]12 [BRITANNILACTONE] , thanks.
A) 7.55

Q) Let me know recorded Activity for C=C1C(=O)O[C@H]2/C=C(\C)CC/C=C(\C)C[C@H](OC(C)=O)[C@@H]12 [ACETYL NEOBRITANNILACTONE B] , thanks.
A) 82.47

Q) Let me know recorded Activity for C=C1C(=O)O[C@@H]2CC(C)=C([C@@H](C)CCCO)[C@H](OC(=O)C(C)CC)[C@H]12 (some centres not stated) , thanks.
A) 6.4

Q) Let me know recorded Activity for `C=C1C(=O)O[C@@H]2CC(C)=C([C@@H](C)CCCOC(C)=O)[C@H](O)[C@H]12` , thanks.
A) 14.87

Q) Let me know recorded Activity for C=C1C(=O)O[C@H]2/C=C(\C)CC/C=C(\C)C[C@H](O)[C@@H]12 [NEOBRITANNILACTONE B] , thanks.
A) 87.02

Next:
Q) Let me know recorded Activity for CC(=O)OCCC[C@H](C)C1=C[C@@H]2[C@H](C)C(=O)O[C@@H]2C[C@@]1(C)O [NEOBRITANNILACTONE A] , thanks.
A) 7.73

Q) Let me know recorded Activity for `C=C1C(=O)O[C@@H]2CC(C)=C([C@@H](C)CCCOC(C)=O)[C@H](OC(C)=O)[C@H]12` , thanks.
A) 20.88

* * *

Each entry below carries its recorded IC50.
Test system: HT-29
Test: Cytotoxicity against human HT29 cells after 24 hrs by trypan blue exclusion assay
Type: functional, cell-based
Settings: HT-29, 24 h
Unit µM implied. Number only.

Q) Let me know recorded IC50 for C=C1C(=O)O[C@H]2/C=C(\C)CC/C=C(\C)C[C@H](OC(C)=O)[C@@H]12 [ACETYL NEOBRITANNILACTONE B] , thanks.
A) 57

Q) Let me know recorded IC50 for `C=C1C(=O)O[C@@H]2CC(C)=C([C@@H](C)CCCOC(C)=O)[C@H](OC(C)=O)[C@H]12` , thanks.
A) 76.6

Next:
Q) Let me know recorded IC50 for C=C1C(=O)O[C@@H]2CC(C)=C([C@@H](C)CCCO)[C@H](OC(=O)C(C)CC)[C@H]12 (some centres not stated) , thanks.
A) 48.1

Q) Let me know recorded IC50 for C=C1C(=O)O[C@H]2/C=C(\C)CC/C=C(\C)C[C@H](O)[C@@H]12 [NEOBRITANNILACTONE B] , thanks.
A) 56.1

Q) Let me know recorded IC50 for `C=C1C(=O)O[C@@H]2CC(C)=C([C@@H](C)CCCOC(C)=O)[C@H](O)[C@H]12` , thanks.
A) 96

* * *

System: AGS
Experiment: Induction of apoptosis in human AGS cells at 100 uM after 24 hrs by FACS
Format: functional
Each entry below carries its recorded Activity.
Hey, just the number and the unit after it is fine.

Solved entries:
Q) Let me know recorded Activity for C=C1C(=O)O[C@@H]2CC(C)=C([C@@H](C)CCCO)[C@H](OC(=O)C(C)CC)[C@H]12 (stereo partly drawn) , thanks.
A) 27.1%

Q) Let me know recorded Activity for `C=C1C(=O)O[C@@H]2CC(C)=C([C@@H](C)CCCOC(C)=O)[C@H](O)[C@H]12` , thanks.
A) 18.85%

Moving on to the next molecule.
Q) Let me know recorded Activity for C=C1C(=O)O[C@H]2/C=C(\C)CC/C=C(\C)C[C@H](O)[C@@H]12 [NEOBRITANNILACTONE B] , thanks.
A) 19.22%

* * *

Each entry below carries its recorded Activity.
Test system: COLO 205
Assay: Induction of apoptosis in human COLO205 cells at 25 uM after 24 hrs by FACS
Assay type: functional
Hey, just the number and the unit after it is fine.

Q) Let me know recorded Activity for `C=C1C(=O)O[C@@H]2CC(C)=C([C@@H](C)CCCOC(C)=O)[C@H](OC(C)=O)[C@H]12` , thanks.
A) 26.95%

Q) Let me know recorded Activity for C=C1C(=O)O[C@@H]2CC(C)=C([C@@H](C)CCCO)[C@H](O)[C@H]12 [BRITANNILACTONE] , thanks.
A) 12.79%

Q) Let me know recorded Activity for C=C1C(=O)O[C@H]2/C=C(\C)CC/C=C(\C)C[C@H](OC(C)=O)[C@@H]12 [ACETYL NEOBRITANNILACTONE B] , thanks.
A) 76.87%

Moving on to the next molecule.
Q) Let me know recorded Activity for C=C1C(=O)O[C@@H]2CC(C)=C([C@@H](C)CCCO)[C@H](OC(=O)C(C)CC)[C@H]12 (some centres not stated) , thanks.
A) 15.2%

Provenance of the data: ChEMBL document CHEMBL1157304
